Reference for the values: ChEMBL document CHEMBL3091456

Parameter: Efficacy. Scope: all listed entries.
- measured_target: G-protein coupled receptor 39 (Homo sapiens)
- protocol: Agonist activity at recombinant human GPR39 expressed in CHO-K1 cells assessed as increase of Zn2+-induced intracellular Ca+2 mobilization after 1 hr by Fluo-4 No staining-based FLIPR assay relative to Zn+2
- Assay type: cell-based
Unit % implied. Number only.

Sample answers from the record:
{"compound": "CCc1nc(CN2C[C@@H](C(=O)NCc3ccccc3Cl)[C@H](c3cccnc3)C2)c[nH]1", "output_unit": "%", "Efficacy": 74}
{"compound": "CCc1nc(CN2C[C@H](C(=O)NCc3ccccc3Cl)[C@@H](c3cccnc3)C2)c[nH]1", "output_unit": "%", "Efficacy": 66}
{"compound": "COc1cccc([C@@H]2CCN(CCc3ccccc3)C[C@H]2C(=O)NCCc2ccccn2)c1 (racemic)", "output_unit": "%", "Efficacy": 82}

Incoming: Please report the recorded Efficacy for N#Cc1ccc(N2CCN(Cc3cn4cc(Cl)ccc4n3)CC2)nc1 .
Outgoing: 76

* * *

Parameter: pEC50. Scope: all listed entries.
- measured_target: G-protein coupled receptor 39 (Homo sapiens, UniProt O43194)
- Sequence (O43194 whole entry): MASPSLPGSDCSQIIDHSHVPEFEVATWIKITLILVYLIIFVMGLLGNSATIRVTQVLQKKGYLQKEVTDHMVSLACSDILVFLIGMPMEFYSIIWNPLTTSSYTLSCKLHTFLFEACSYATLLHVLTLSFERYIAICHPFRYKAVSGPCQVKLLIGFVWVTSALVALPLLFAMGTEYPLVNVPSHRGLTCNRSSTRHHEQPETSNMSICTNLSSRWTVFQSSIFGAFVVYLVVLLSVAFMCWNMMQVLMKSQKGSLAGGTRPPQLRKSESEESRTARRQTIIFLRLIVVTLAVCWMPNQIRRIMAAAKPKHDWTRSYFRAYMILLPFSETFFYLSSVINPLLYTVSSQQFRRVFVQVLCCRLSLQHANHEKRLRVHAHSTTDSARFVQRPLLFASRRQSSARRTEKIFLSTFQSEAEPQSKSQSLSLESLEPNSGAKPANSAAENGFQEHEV
- protocol: Agonist activity at recombinant human GPR39 expressed in CHO-K1 cells assessed as increase of Zn2+-induced cAMP production preincubated for 30 mins measured after 60 mins
- Assay type: functional, cell-based
On this scale, pEC50 is minus log10 of a concentration expressed in M (mol/L).

Sample answers from the record:
{"molecule": "N#Cc1ccc(N2CCN(Cc3cn4cc(Cl)ccc4n3)CC2)nc1", "pEC50": 4.92}
{"molecule": "CCc1ncc(CN2C[C@@H](C(=O)NCc3ccccc3Cl)[C@H](c3cccnc3)C2)[nH]1", "pEC50": 6.08}
{"molecule": "CCc1ncc(CN2C[C@H](C(=O)NCc3ccccc3Cl)[C@@H](c3cccnc3)C2)[nH]1", "pEC50": 6.51}

Next, consider the following molecule.
Incoming: Please report the recorded pEC50 for COc1cccc([C@@H]2CCN(CCc3ccccc3)C[C@H]2C(=O)NCCc2ccccn2)c1 (racemic) .
Outgoing: 5.35

* * *

Parameter: Papp. Scope: all listed entries.
- protocol: Apparent permeability of the compound
- Assay type: physicochemical
- condition_description: not told
Unit ×10⁻⁶ cm/s implied. Number only.

Sample answers from the record:
{"molecule": "COc1cccc([C@@H]2CCN(CCc3ccccc3)C[C@H]2C(=O)NCCc2ccccn2)c1 (racemic)", "experimental_value": 3.1}
{"molecule": "CCc1ncc(CN2C[C@H](C(=O)NCc3ccccc3Cl)[C@@H](c3cccnc3)C2)[nH]1", "experimental_value": 1.2}

Next, consider the following molecule.
Incoming: Please report the recorded Papp for CCc1ncc(CN2C[C@@H](C(=O)NCc3ccccc3Cl)[C@H](c3cccnc3)C2)[nH]1 .
Outgoing: 0.8

* * *

Parameter: Efficacy. Scope: all listed entries.
- measured_target: G-protein coupled receptor 39 (Homo sapiens) (UniProt O43194)
- Sequence (O43194 whole entry): as above
- protocol: Agonist activity at recombinant human GPR39 expressed in CHO-K1 cells assessed as increase of Zn2+-induced cAMP production preincubated for 30 mins measured after 60 mins relative to Zn+2
- Format: functional, cell-based
Unit % implied. Number only.

Sample answers from the record:
{"molecule": "CCc1nc(CN2C[C@H](C(=O)NCc3ccccc3Cl)[C@@H](c3cccnc3)C2)c[nH]1", "Efficacy [%]": 107}
{"molecule": "COc1cccc([C@@H]2CCN(CCc3ccccc3)C[C@H]2C(=O)NCCc2ccccn2)c1 (racemic)", "Efficacy [%]": 107}
{"molecule": "N#Cc1ccc(N2CCN(Cc3cn4cc(Cl)ccc4n3)CC2)nc1", "Efficacy [%]": 100}

Next, consider the following molecule.
Incoming: Please report the recorded Efficacy for CCc1nc(CN2C[C@@H](C(=O)NCc3ccccc3Cl)[C@H](c3cccnc3)C2)c[nH]1 .
Outgoing: 99
